- target: recombinant soluble homotrimeric HA of A/Netherlands/219/03 (H7N7) (Influenza A virus A/Netherlands/219/03(H7N7))
- assay remarks: HA microarray, BCC supernatant
- condition description: remark: other sources report otherwise
So I've got a bunch of binders here, and I need their Trimeric HA Binding: RLU values.
One number for each entry, in RLU.

TCN-536 (5095_N01) (antibody, V domains shown) VH: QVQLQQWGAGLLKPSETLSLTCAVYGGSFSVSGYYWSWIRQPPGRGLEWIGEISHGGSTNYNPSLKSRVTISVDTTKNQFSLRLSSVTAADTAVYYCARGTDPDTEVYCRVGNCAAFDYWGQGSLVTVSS VL: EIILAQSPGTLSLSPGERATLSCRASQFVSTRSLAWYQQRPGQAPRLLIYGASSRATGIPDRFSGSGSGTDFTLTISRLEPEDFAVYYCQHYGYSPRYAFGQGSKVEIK	976

Could you now look at the following binder, please?
Exam item: State its Trimeric HA Binding: RLU for this binder: TCN-557 (5081_A04) (antibody, V domains shown) VH: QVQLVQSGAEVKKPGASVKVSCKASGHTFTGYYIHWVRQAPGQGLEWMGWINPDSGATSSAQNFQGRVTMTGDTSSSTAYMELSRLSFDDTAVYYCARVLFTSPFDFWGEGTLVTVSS VL: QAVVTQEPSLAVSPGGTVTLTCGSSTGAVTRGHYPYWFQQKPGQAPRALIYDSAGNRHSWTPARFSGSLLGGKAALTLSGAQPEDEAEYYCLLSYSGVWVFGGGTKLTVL
Marked response: 6780
